Every entry's value here was drawn from patent US9657057B2.

# Procedure summary: Solubility pH 7
# Assay type: physicochemical
# Setup conditions: pH 7, aqueous buffer
Observation type: solubility (µg/mL)
Express the result in µg/mL but write the number alone.

These recorded examples may help you get a feel for the data.
                                   molecule  observation_type  number
0  COC(=O)N[C@@H](C)C(=O)N[C@@H](Cc1ccc(OC)cc1)C(=O)N[C@@H](Cc1ccccc1)C(=O)[C@@]1(C)CO1 [Compound C-2009]        solubility     163
1  COCCC(=O)N[C@H](C)C(=O)N[C@@H](Cc1ccc(OC)cc1)C(=O)N[C@@H](CC1CCCC1)C(=O)[C@@]1(C)CO1 [Compound C-2018]        solubility     129
2  COc1ccc(C[C@H](NC(=O)[C@@H](C)NC(=O)c2ccc3[nH]ncc3c2)C(=O)N[C@@H](CC2CCCC2)C(=O)[C@@]2(C)CO2)cc1 [Compound C-2061]        solubility    26.3

Request: solubility for COc1ccc(C[C@H](NC(=O)[C@@H](CN2CCOCC2)NC(=O)c2cc(C)no2)C(=O)N[C@@H](CC2CCCC2)C(=O)[C@@]2(C)CO2)cc1 [Compound C-2045] ?
Response: 160

Request: Recorded solubility of CC[C@](C)(O)CC(=O)N[C@H](C)C(=O)N[C@@H](Cc1ccc(OC)cc1)C(=O)N[C@@H](CC1CCCC1)C(=O)[C@@]1(C)CO1 [Compound C-2051] , please.
Response: 241

Request: Given COc1ccc(C[C@H](NC(=O)[C@H](C)NC(=O)Cc2cnc(N3CCC3)s2)C(=O)N[C@@H](CC2=CCCC2)C(=O)[C@@]2(C)CO2)cc1 [Compound C-2068] , state its recorded solubility.
Response: 54.6

Request: Quick check: solubility of COc1ccc(C[C@H](NC(=O)[C@@H](C)NC(=O)[C@H]2CCc3[nH]ncc3C2)C(=O)N[C@@H](CC2CCCC2)C(=O)[C@@]2(C)CO2)cc1 [Compound C-2065] ?
Response: 121

Request: Which measured solubility value corresponds to C[C@H](NC(=O)c1cccc(=O)[nH]1)C(=O)N[C@@H](Cc1ccccc1)C(=O)[C@@]1(C)CO1 [Compound C-3016] ?
Response: 7520

* * *

Known log10(IC50) of a selection of molecules
# Assay system: i20S (20S immunoproteasome) (Homo sapiens, UniProt P20618+P28062)
# Procedure summary: 20S proteasome assay, chymotrypsin-like activity (LLVY), i20S
# Format: biochemical
# Setup conditions: LLVY i20S Hu 1 h CONT: IC50 (nM), succinyl-Leu-Leu-Val-Tyr-AMC
Scale: decimal log of IC50, IC50 in nM.

                                   molecule  number
0  CC[C@@](C)(O)CC(=O)N[C@H](C)C(=O)N[C@@H](Cc1ccc(OC)cc1)C(=O)N[C@@H](CC1CCCC1)C(=O)[C@@]1(C)CO1 [Compound C-2052]    1.03
1  COc1ccc(C[C@H](NC(=O)[C@H](C)NC(=O)CO)C(=O)N[C@@H](Cc2ccccc2)C(=O)[C@@]2(C)CO2)cc1 [Compound C-2008]    2.75
2  COc1ccc(C[C@H](NC(=O)[C@H](C)NC(=O)C(C)(F)F)C(=O)N[C@@H](Cc2ccccc2)C(=O)[C@@]2(C)CO2)cc1 [Compound C-2006]    0.79
3  COc1ccc(C[C@H](NC(=O)[C@@H](CN2CCOCC2)NC(=O)c2cc(C)no2)C(=O)N[C@@H](CC2CCCC2)C(=O)[C@@]2(C)CO2)cc1 [Compound C-2045]    2.01
4  CCOCC(=O)N[C@H](C)C(=O)N[C@@H](Cc1ccc(OC)cc1)C(=O)N[C@@H](CC1CCCC1)C(=O)[C@@]1(C)CO1 [Compound C-2021]    3.09

Request: Entry under review: COc1ccc(C[C@H](NC(=O)[C@@H](C)NC(=O)CC(C)(C)O)C(=O)N[C@@H](Cc2ccccc2)C(=O)[C@@]2(C)CO2)cc1 [Compound C-2056] . Reported log10(IC50)?
Response: 1.46
